Every entry's value here was drawn from patent US20210300936A1.

- measured target: human A2A receptor (A2AR) (Homo sapiens, UniProt P29274)
- Sequence (P29274 whole entry): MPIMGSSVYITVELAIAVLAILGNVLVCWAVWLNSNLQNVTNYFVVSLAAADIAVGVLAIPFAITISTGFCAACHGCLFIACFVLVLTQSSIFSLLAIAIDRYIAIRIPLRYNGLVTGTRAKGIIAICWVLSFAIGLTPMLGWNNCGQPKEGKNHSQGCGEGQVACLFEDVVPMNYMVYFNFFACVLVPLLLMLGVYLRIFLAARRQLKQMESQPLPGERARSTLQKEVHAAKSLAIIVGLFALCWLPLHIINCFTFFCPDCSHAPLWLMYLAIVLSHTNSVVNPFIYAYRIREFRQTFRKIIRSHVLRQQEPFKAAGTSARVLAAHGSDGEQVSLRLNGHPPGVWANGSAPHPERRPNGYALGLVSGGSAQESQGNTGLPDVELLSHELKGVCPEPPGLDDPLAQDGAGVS
- assay name: Luciferase reporter assay (HEK293-A2AR-luc2p/CRE/Hygro cells, 3 nM CGS21680)
- details: 3 nM CGS21680, 5 h incubation
pIC50: −log10 of the molar value.
Label 1 when pIC50 >= 8; otherwise 0.

Please indicate if the recorded pIC50 for CNCCOc1ccc(N2CCN(C(=O)C(C)n3cc4c(nc(N)n5nc(-c6ccco6)nc45)n3)CC2)cc1 (stereo not drawn) meets or exceeds 8.
0

# check: pIC50 of CCCC(C(=O)N1CCN(c2ccc(F)cc2F)CC1)n1ncc2c1nc(N)n1nc(-c3ccco3)nc21 (stereo not drawn) is greater than or equal to 8
1

API: above_or_equal(metric=pIC50, cutoff=8) for item COCCOc1ccc(N2CCN(C(=O)C(c3ccccc3)n3ncc4c3nc(N)n3nc(-c5ccco5)nc43)CC2C)cc1 (single isomer, unassigned) [Compound A47b]
1

Can CN1CCN(CCOc2ccc(N3CCN(C(=O)[C@@](C)(c4ccccc4)n4ncc5c4nc(N)n4nc(-c6ccco6)nc54)CC3)cc2)CC1 [Compound A81b] be said to have pIC50 at or above 8?
1

---

- measured target: human A2A receptor (A2AR) (Homo sapiens, UniProt P29274)
- assay name: Luciferase reporter assay (HEK293-A2AR-luc2p/CRE/Hygro cells, 3 nM CGS21680)
- details: 3 nM CGS21680, 5 h incubation
Please go through the items and note down their pIC50.
Scale explanation: pIC50 corresponds to minus log10 of a concentration expressed in moles per litre.

Please indicate recorded pIC50 of COCCOc1ccc(N2CCN(C(=O)C(c3ccccc3C(F)(F)F)n3ncc4c3nc(N)n3nc(-c5ccco5)nc43)CC2)cc1 (stereo not shown) measured with human A2A receptor (A2AR) (Homo sapiens, UniProt P29274).
9.22

Look up human A2A receptor (A2AR) (Homo sapiens, UniProt P29274) data: pIC50 of C[C@@](C(=O)N1CCN(c2ccc(F)cc2)CC1)(c1ccccc1)n1ncc2c1nc(N)n1nc(-c3ccco3)nc21 [Compound A70a] , then report it.
8.00

Please respond with reported pIC50 (system human A2A receptor (A2AR) (Homo sapiens, UniProt P29274)) for COc1ccccc1N1CCN(C(=O)C(C)(c2ccccc2)n2ncc3c2nc(N)n2nc(-c4ccco4)nc32)CC1 (stereo not shown) .
8.21

// fetch pIC50 for COCCOc1ccc(N2CCN(C(=O)C(c3ccc(OC)cc3)n3ncc4c3nc(N)n3nc(-c5ccco5)nc43)CC2)cc1 (stereo not shown) ; system: human A2A receptor (A2AR) (Homo sapiens, UniProt P29274)
7.69

For human A2A receptor (A2AR) (Homo sapiens, UniProt P29274), give pIC50 of the listed molecule: COCCOc1ccc(N2CCN(C(=O)C(c3ccccc3F)n3ncc4c3nc(N)n3nc(-c5ccco5)nc43)CC2)cc1 (single isomer, unassigned) [Compound A43b]
9.40

Find the measured pIC50 of COCCOc1ccc(N2CCN(C(=O)C(c3cccc(C(F)(F)F)c3)n3ncc4c3nc(N)n3nc(-c5ccco5)nc43)CC2)cc1 (stereo not shown) with human A2A receptor (A2AR) (Homo sapiens, UniProt P29274) as test system.
8.11

Give pIC50; test system human A2A receptor (A2AR) (Homo sapiens, UniProt P29274); molecule COCCOCCOc1ccc(N2CCN(C(=O)C(C3CC3)n3ncc4c3nc(N)n3nc(-c5ccco5)nc43)CC2)cc1 (stereo not shown)
7.67

Provide measured pIC50 on human A2A receptor (A2AR) (Homo sapiens, UniProt P29274) for CC(C(=O)N1CCN(c2ccc(OCCN3CCOCC3)cc2)CC1)(c1ccccc1)n1ncc2c1nc(N)n1nc(-c3ccco3)nc21 (stereo not shown) please.
8.37

Fill in: pIC50 on human A2A receptor (A2AR) (Homo sapiens, UniProt P29274), entry CC(C(=O)N1CC2(CCOCC2)C1)(c1ccccc1)n1ncc2c1nc(N)n1nc(-c3ccco3)nc21 (stereo not shown)
7.81

Tell me its pIC50 on human A2A receptor (A2AR) (Homo sapiens, UniProt P29274): CC1(O)CCN(C(=O)C(C)(c2ccccc2)n2ncc3c2nc(N)n2nc(-c4ccco4)nc32)CC1 (stereo not shown)
7.63

Using human A2A receptor (A2AR) (Homo sapiens, UniProt P29274) as the test system, report measured pIC50 of CCCC(C(=O)N1CCN(c2ccc(OCCOCCOC)cc2)CC1)n1ncc2c1nc(N)n1nc(-c3ccco3)nc21 (stereo not shown) [Compound A6] .
8.02

Param request: pIC50 | system human A2A receptor (A2AR) (Homo sapiens, UniProt P29274) | item COCCOc1ccc(N2CCN(C(=O)C(CC(C)C)n3cc4c(nc(N)n5nc(-c6ccco6)nc45)n3)CC2)cc1 (stereo not shown)
7.05

Fill in pIC50 for CCCC(C(=O)N1CCN(c2ccc(OCCOC)cc2F)CC1)n1ncc2c1nc(N)n1nc(-c3ccco3)nc21 (stereo not shown) [Compound A24] tested with human A2A receptor (A2AR) (Homo sapiens, UniProt P29274).
8.36

Tell me pIC50 of Nc1nc2c(cnn2C(C(=O)N2CCN(c3ccc(OCCO)cc3)CC2)c2ccccc2)c2nc(-c3ccco3)nn12 (stereo not shown) when tested on human A2A receptor (A2AR) (Homo sapiens, UniProt P29274).
9.30

Quote human A2A receptor (A2AR) (Homo sapiens, UniProt P29274) pIC50 for entry COCCOc1ccc(N2CCN(C(=O)C(C)(C)n3ncc4c3nc(N)n3nc(-c5ccco5)nc43)CC2)cc1 .
6.44

Provide the reported pIC50 (system: human A2A receptor (A2AR) (Homo sapiens, UniProt P29274)) for COCCOc1ccc(N2CCN(C(=O)C(C)(Cc3ccccc3)n3ncc4c3nc(N)n3nc(-c5ccco5)nc43)CC2)cc1 (stereo not shown)
6.47

Fill in pIC50 for COCCOc1ccc(N2CCN(C(=O)C(c3ccccc3)n3ncc4c3nc(N)n3nc(-c5ccco5)nc43)CC2C)cc1 (single isomer, unassigned) [Compound A46a] tested with human A2A receptor (A2AR) (Homo sapiens, UniProt P29274).
7.17

Answer with pIC50 of COCCOc1ccc(N2CCN(C(=O)C(c3cccc(OC)c3)n3ncc4c3nc(N)n3nc(-c5ccco5)nc43)CC2)cc1 (stereo not shown) measured for human A2A receptor (A2AR) (Homo sapiens, UniProt P29274).
8.24

Provide measured pIC50 on human A2A receptor (A2AR) (Homo sapiens, UniProt P29274) for Nc1nc2c(cnn2C(C(=O)N2CCc3ccncc3C2)c2ccccc2)c2nc(-c3ccco3)nn12 (stereo not shown) please.
8.40

---

For each record, write down the corresponding IC50.
- measured target: human A2A receptor (A2AR) (Homo sapiens, UniProt P29274)
- assay name: Luciferase reporter assay (HEK293-A2AR-luc2p/CRE/Hygro cells, 3 nM CGS21680)
- details: 3 nM CGS21680, 5 h incubation
- Protocol: HEK293 cells were maintained in Dulbecco's modified Eagle's medium (DMEM, Gibco) supplemented with 10% fetal bovine serum (FBS, Thermo Scientific), 100 units/mL penicillin (Gibco), and 0.1 mg/mL streptomycin (Gibco) in a humidified 37° C. environment with 5% C02. Plasmid encoding wild-type human A2A receptor (A2AR) (in pcDNA3.1) was synthesized by Genscript (Nanjing, China). […] Expression level of A2AR in each single cell clone was determined using immunoblotting and FACS method. […]

Identify measured IC50 corresponding to CCC(C(=O)N1CCN(c2ccc(OCCOCCOC)cc2)CC1)n1ncc2c1nc(N)n1nc(-c3ccco3)nc21 (stereo not drawn)
41.5 nM

Find the measured IC50 of CCCC(C(=O)N1CCN(c2ccc(OCCN(C)C)cc2)CC1)n1ncc2c1nc(N)n1nc(-c3ccco3)nc21 (single isomer, unassigned) [Compound A39b] and report it.
3.6 nM

Return IC50 (reported value) for this molecule: CC(C(=O)N1CC2(COC2)C1)(c1ccccc1)n1ncc2c1nc(N)n1nc(-c3ccco3)nc21 (stereo not drawn)
16 nM

Indicate the recorded IC50 value for this molecule: CC(C(=O)N1CCc2ccccc2C1)(c1ccccc1)n1ncc2c1nc(N)n1nc(-c3ccco3)nc21 (stereo not drawn)
111 nM

Provide measured IC50 value, entry: COCCOc1ccc(N2CCN(C(=O)C(c3ccccc3OC)n3ncc4c3nc(N)n3nc(-c5ccco5)nc43)CC2)cc1 (single isomer, unassigned) [Compound A31b]
0.1 nM

Write down IC50 measured for item COCCOc1ccc(N2CCN(C(=O)C(C3CC3)n3cc4c(nc(N)n5nc(-c6ccco6)nc45)n3)CC2)cc1 (single isomer, unassigned) [Compound C16a]
4.1 nM

Indicate the recorded IC50 value for this molecule: CC(C(=O)N1CCN(c2ccc(OCCN(C)C)cc2)CC1)n1ncc2c1nc(N)n1nc(-c3ccco3)nc21 (stereo not drawn)
30.6 nM

Please give measured IC50 of the following entry: CC(C(=O)N1CCN(c2ccc(OCCN)cc2)CC1)n1ncc2c1nc(N)n1nc(-c3ccco3)nc21 (stereo not drawn)
23.1 nM

Recall and state the measured IC50 for Nc1nc2c(cnn2C(C(=O)N2CCc3cccc(F)c3C2)c2ccccc2)c2nc(-c3ccco3)nn12 (stereo not drawn) .
0.8 nM
